Each recorded value in this set is attributed to patent US20240309103A1.

molecular target: T1, human NPR1 extracellular domain expressed with a C-terminal myc-myc-hexahistidine (hNPR1-MMH) (human, UniProt P16066 33-473); test: SPR, mAb captured, 37 C
T1 construct: also called hNPR.mmh; monomeric human NPR1
T1 sequence (P16066 other isoform, or with tags, fused parts or gaps): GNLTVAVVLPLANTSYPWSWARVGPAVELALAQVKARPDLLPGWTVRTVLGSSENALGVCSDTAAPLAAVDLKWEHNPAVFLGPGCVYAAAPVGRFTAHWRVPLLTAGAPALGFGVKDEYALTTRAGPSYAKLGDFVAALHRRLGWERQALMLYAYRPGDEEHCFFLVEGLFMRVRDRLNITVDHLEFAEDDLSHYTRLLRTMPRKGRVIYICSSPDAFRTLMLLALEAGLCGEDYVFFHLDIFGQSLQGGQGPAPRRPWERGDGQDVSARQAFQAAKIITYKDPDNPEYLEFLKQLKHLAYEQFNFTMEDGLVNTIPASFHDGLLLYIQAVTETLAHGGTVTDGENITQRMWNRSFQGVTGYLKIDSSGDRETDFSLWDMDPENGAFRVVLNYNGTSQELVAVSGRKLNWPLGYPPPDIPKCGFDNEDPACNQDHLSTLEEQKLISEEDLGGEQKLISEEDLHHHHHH

{"columns": ["BINDER", "100 nM Ag Bound (RU)"],
 "data": [
  ["mAb25491 (antibody, V domains shown) VH: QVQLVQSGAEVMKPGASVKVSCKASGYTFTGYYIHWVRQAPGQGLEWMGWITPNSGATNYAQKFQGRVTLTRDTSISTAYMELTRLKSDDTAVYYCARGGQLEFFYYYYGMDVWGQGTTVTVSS VL: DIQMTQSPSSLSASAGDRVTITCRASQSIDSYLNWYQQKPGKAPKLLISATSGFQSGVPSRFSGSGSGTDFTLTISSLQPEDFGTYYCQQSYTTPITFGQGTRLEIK", 51],
  ["mAb22805 (antibody, V domains shown) VH: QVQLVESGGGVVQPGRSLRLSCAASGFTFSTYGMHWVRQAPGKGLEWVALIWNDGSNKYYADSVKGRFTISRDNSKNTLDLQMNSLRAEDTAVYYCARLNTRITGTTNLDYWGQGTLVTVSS VL: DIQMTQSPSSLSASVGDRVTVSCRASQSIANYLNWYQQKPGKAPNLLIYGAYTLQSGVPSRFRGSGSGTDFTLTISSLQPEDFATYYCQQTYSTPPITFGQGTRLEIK", 1],
  ["mAb22035 (antibody, V domains shown) VH: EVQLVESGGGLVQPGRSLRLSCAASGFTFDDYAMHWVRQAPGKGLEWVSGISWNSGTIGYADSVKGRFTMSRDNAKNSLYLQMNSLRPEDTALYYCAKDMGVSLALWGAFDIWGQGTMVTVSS VL: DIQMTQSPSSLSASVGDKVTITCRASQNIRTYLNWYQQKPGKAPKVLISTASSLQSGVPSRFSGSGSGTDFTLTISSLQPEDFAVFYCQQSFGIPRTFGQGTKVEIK", 284],
  ["mAb22809 (antibody, V domains shown) VH: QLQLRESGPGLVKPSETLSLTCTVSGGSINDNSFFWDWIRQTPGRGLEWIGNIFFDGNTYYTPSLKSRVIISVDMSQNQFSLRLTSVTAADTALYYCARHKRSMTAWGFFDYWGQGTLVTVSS VL: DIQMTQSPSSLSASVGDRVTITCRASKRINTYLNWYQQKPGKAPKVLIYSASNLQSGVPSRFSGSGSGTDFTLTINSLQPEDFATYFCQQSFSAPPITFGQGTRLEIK", -1],
  ["mAb25497 (antibody, V domains shown) VH: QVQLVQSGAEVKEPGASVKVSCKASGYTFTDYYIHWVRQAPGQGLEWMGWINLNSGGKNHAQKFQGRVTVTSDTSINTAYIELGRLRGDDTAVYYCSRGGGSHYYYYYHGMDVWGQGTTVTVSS VL: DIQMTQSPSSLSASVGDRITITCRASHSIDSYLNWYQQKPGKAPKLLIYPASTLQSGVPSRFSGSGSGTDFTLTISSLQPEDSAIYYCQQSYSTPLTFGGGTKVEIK", 31],
  ["mAb25479 (antibody, V domains shown) VH: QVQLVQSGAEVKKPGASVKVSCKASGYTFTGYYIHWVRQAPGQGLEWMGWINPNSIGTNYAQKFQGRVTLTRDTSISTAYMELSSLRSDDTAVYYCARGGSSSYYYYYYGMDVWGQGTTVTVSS VL: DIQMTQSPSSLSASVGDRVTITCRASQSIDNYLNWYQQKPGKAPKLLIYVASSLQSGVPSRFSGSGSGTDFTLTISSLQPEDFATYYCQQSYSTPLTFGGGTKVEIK", 16],
  ["mAb22033 (antibody, V domains shown) VH: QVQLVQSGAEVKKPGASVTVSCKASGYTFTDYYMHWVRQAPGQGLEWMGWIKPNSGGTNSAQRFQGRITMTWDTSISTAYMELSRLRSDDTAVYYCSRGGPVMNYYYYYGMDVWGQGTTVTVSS VL: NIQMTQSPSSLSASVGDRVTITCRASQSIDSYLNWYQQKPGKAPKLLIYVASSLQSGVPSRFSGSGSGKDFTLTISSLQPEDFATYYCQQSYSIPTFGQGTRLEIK", 52],
  ["mAb25508 (antibody, V domains shown) VH: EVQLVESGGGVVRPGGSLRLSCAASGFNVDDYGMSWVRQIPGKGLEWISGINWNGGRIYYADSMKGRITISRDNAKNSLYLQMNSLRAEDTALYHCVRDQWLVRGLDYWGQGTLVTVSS VL: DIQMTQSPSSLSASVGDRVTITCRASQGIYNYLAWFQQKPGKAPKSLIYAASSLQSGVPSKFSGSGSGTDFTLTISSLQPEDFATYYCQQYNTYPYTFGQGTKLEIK", 252],
  ["mAb25502 (antibody, V domains shown) VH: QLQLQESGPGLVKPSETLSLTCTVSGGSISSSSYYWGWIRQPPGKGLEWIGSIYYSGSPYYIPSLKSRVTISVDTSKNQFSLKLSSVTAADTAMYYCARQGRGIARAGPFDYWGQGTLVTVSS VL: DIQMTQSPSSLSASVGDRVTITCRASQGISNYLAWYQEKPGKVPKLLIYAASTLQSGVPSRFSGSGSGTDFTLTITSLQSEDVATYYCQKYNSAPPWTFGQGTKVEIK", 4]
]}
